experimental system: human TAS1R2-C9S/TAS1R3-WT (Homo sapiens, UniProt Q7RTX0+Q8TE23)
Construct: expressed in transfected cells; host or cells: HEK293T-Gα16gust44
assay explanation: Calcium mobilisation assay, TAS1R2 variant C9S with TAS1R3-WT
Type: cell-based
test readout: R1 = Variant EC50/WT EC50
Numbers only.

Which R1 = Variant EC50/WT EC50 is listed for OC[C@H]1O[C@H](O[C@]2(CCl)O[C@H](CCl)[C@@H](O)[C@@H]2O)[C@H](O)[C@@H](O)[C@H]1Cl [Sucralose] ?
1.0

====

experimental system: human TAS1R2-WT/TAS1R3-A5T (Homo sapiens, UniProt Q7RTX0+Q8TE23, A5T)
Construct: expressed in transfected cells; host or cells: HEK293T stably expressing Gα16gust44
Sequence (Q8TE23 20-839): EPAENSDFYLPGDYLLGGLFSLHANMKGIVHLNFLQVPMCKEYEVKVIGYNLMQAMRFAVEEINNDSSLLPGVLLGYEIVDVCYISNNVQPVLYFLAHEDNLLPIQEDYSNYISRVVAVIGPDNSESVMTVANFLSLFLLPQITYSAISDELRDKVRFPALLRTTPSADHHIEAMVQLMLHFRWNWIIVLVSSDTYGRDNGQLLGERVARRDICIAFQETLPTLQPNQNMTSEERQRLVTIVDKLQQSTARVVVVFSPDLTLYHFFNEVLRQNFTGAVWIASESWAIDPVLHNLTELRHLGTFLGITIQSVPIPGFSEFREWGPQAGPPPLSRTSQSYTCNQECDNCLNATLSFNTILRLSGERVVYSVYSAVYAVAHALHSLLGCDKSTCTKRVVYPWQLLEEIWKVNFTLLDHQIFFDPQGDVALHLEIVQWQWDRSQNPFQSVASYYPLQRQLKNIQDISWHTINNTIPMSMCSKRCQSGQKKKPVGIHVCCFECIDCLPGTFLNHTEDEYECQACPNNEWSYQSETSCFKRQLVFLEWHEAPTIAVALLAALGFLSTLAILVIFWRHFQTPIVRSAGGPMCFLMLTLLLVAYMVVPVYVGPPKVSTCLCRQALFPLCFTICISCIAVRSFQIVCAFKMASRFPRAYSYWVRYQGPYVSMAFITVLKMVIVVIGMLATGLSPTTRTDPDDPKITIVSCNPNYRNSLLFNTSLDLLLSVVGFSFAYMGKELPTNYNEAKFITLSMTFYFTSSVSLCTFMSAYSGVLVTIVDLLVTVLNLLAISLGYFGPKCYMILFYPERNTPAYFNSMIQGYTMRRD
Sequence (Q7RTX0 21-852): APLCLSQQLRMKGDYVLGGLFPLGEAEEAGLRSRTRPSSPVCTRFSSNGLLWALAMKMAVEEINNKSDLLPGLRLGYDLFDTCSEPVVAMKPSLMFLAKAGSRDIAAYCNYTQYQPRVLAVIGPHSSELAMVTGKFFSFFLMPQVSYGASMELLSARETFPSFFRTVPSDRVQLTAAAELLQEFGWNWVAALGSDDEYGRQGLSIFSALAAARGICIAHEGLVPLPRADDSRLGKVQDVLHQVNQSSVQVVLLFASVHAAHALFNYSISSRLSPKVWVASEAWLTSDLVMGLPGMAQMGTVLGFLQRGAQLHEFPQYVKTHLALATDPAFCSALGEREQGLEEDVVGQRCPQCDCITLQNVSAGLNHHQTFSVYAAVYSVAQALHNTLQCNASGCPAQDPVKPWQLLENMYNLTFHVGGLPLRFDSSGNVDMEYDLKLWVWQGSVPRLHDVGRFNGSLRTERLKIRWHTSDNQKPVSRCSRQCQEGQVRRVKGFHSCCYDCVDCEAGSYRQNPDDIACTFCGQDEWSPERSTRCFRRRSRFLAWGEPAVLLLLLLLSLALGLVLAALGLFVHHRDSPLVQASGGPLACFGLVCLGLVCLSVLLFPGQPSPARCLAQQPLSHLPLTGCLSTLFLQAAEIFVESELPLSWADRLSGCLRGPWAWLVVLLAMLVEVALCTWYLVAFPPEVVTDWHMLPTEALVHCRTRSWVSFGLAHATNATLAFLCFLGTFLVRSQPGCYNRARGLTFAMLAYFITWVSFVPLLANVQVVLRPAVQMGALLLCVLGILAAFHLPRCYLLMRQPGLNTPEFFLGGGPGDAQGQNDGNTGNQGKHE
assay explanation: Calcium mobilisation assay, TAS1R2-WT with TAS1R3 variant A5T
Assay type: cell-based
condition summary: read-out: EC50
test readout: pEC50
One number for each entry, as −log10 of the molar value.

C[C@H](CC[C@@H](O[C@@H]1O[C@H](CO[C@@H]2O[C@H](CO)[C@@H](O)[C@H](O)[C@H]2O)[C@@H](O)[C@H](O)[C@H]1O[C@@H]1O[C@H](CO)[C@@H](O)[C@H](O)[C@H]1O)C(C)(C)O)[C@H]1CC[C@@]2(C)[C@@H]3CC=C4[C@@H](CC[C@H](O[C@@H]5O[C@H](CO[C@@H]6O[C@H](CO)[C@@H](O)[C@H](O)[C@H]6O)[C@@H](O)[C@H](O)[C@H]5O)C4(C)C)[C@]3(C)[C@H](O)C[C@]12C [Mogroside V, mogroside V]; 4.50
OC[C@H]1O[C@H](O[C@]2(CCl)O[C@H](CCl)[C@@H](O)[C@@H]2O)[C@H](O)[C@@H](O)[C@H]1Cl [Sucralose]; 3.87

Would you mind giving pEC50 for every compound in the list below?
1. CC1=CC(=O)NS(=O)(=O)O1 [Acesulfame K, acesulfame K]
2. COC(=O)[C@H](Cc1ccccc1)NC(=O)[C@H](CC(=O)O)NCCC(C)(C)C [Neotame]

1: 3.07; 2: 5.93

====

Would you kindly list R1 = Variant EC50/WT EC50 for each of these compounds?
experimental system: human TAS1R2-WT/TAS1R3-F749S (Homo sapiens, UniProt Q7RTX0+Q8TE23, F749S)
Construct: expressed in transfected cells; host or cells: HEK293T stably expressing Gα16gust44
assay explanation: Calcium mobilisation assay, TAS1R2-WT with TAS1R3 variant F749S
Format: cell-based
Excerpt: The coding sequences for TAS1R2 and TAS1R3 were commercially synthesised, and the human codon was optimised for expression in human cells. […] The HEK293T cells were kindly provided by Jay P. Slack (Givaudan Flavors Corporation; Cincinnati, OH, USA). […] The Ca^2+ changes were expressed as fractional changes in fluorescent light intensity: ΔF/F = (F − F0)/F0, where F was the fluorescent light intensity at each point, and F0 was the value of emitted fluorescent light prior to stimulus application. […]
Numbers only.

Sample records with R1 = Variant EC50/WT EC50:
C=C(C)[C@@H]1CC=C(/C=N/O)CC1; 0.9
OC[C@H]1O[C@H](O[C@]2(CCl)O[C@H](CCl)[C@@H](O)[C@@H]2O)[C@H](O)[C@@H](O)[C@H]1Cl; 2.3

Field: next compound
Which R1 = Variant EC50/WT EC50 is listed for COc1ccc(CCC(=O)c2c(O)cc(O[C@@H]3O[C@H](CO)[C@@H](O)[C@H](O)[C@H]3O[C@@H]3O[C@@H](C)[C@H](O)[C@@H](O)[C@H]3O)cc2O)cc1O [NHDC, neohesperidin dihydrochalcone] ?
3.0

====

Would you kindly list R1 = Variant EC50/WT EC50 for each of these molecules?
experimental system: human TAS1R2-WT/TAS1R3-C757R (Homo sapiens, UniProt Q7RTX0+Q8TE23, C757R)
Construct: expressed in transfected cells; host or cells: HEK293T stably expressing Gα16gust44
Sequence (Q8TE23 20-839): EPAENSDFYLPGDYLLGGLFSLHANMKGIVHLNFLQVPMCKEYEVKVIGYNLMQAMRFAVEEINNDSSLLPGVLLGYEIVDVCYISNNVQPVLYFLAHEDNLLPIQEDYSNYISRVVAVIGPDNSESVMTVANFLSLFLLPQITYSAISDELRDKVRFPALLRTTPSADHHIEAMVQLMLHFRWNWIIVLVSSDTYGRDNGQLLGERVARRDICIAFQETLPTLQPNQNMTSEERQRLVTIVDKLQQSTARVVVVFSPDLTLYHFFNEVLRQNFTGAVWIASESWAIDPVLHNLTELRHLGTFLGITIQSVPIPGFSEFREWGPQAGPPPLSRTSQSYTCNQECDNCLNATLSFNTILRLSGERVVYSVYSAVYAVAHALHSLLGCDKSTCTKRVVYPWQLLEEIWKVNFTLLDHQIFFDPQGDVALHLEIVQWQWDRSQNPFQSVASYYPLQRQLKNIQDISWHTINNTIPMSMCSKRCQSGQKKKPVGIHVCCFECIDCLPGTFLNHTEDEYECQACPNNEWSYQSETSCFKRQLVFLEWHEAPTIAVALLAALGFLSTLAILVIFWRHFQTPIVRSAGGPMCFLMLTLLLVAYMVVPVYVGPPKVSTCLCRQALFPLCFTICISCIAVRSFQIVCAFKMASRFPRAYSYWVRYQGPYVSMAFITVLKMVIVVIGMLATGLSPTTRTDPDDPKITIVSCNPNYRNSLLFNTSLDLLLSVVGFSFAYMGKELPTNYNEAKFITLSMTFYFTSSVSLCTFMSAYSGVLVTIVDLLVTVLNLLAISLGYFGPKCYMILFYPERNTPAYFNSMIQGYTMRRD
Sequence (Q7RTX0 21-852 C757R): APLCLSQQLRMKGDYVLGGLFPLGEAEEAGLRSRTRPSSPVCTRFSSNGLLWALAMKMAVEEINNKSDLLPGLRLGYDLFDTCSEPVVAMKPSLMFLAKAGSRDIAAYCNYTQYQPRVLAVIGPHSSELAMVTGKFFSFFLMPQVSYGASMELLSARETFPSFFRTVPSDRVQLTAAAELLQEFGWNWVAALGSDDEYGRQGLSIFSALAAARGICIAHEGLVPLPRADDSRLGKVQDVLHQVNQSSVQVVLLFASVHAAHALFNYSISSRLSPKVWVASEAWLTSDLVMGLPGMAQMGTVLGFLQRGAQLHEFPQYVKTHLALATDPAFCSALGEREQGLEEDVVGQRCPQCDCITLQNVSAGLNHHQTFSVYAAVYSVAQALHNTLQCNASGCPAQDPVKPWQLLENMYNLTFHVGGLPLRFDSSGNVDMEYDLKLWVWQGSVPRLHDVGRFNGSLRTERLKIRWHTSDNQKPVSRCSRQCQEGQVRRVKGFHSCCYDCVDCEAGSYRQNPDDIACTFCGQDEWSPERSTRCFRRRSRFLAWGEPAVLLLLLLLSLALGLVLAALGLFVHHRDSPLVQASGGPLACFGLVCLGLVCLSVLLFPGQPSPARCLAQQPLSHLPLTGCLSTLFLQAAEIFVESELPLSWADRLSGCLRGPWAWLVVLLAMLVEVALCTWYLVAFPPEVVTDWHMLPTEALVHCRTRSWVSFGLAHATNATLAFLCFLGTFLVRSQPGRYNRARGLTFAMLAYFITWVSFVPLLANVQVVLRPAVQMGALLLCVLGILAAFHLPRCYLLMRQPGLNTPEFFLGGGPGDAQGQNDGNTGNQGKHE
assay explanation: Calcium mobilisation assay, TAS1R2-WT with TAS1R3 variant C757R
Type: cell-based
One number for each entry.

Sample records with R1 = Variant EC50/WT EC50:
COC(=O)[C@H](Cc1ccccc1)NC(=O)[C@H](CC(=O)O)NCCC(C)(C)C [Neotame]; 0.7
OC[C@H]1O[C@H](O[C@]2(CCl)O[C@H](CCl)[C@@H](O)[C@@H]2O)[C@H](O)[C@@H](O)[C@H]1Cl [Sucralose]; 1.0
CC1=CC(=O)NS(=O)(=O)O1 [Acesulfame K, acesulfame K]; 0.8
C[C@H](CC[C@@H](O[C@@H]1O[C@H](CO[C@@H]2O[C@H](CO)[C@@H](O)[C@H](O)[C@H]2O)[C@@H](O)[C@H](O)[C@H]1O[C@@H]1O[C@H](CO)[C@@H](O)[C@H](O)[C@H]1O)C(C)(C)O)[C@H]1CC[C@@]2(C)[C@@H]3CC=C4[C@@H](CC[C@H](O[C@@H]5O[C@H](CO[C@@H]6O[C@H](CO)[C@@H](O)[C@H](O)[C@H]6O)[C@@H](O)[C@H](O)[C@H]5O)C4(C)C)[C@]3(C)[C@H](O)C[C@]12C [Mogroside V, mogroside V]; 0.7

Field: next molecule
Which R1 = Variant EC50/WT EC50 is listed for COc1ccc(CCC(=O)c2c(O)cc(O[C@@H]3O[C@H](CO)[C@@H](O)[C@H](O)[C@H]3O[C@@H]3O[C@@H](C)[C@H](O)[C@@H](O)[C@H]3O)cc2O)cc1O [NHDC, neohesperidin dihydrochalcone] ?
0.7
